target: 5-HT2C receptor (Homo sapiens, UniProt P28335); construct: host or cells: HEK293; assay: FLIPR Ca2+ flux functional assay, agonist activity at 5-HT2C; format: cell-based; conditions: stably transfected HEK293 cells
Sequence (P28335 33-458): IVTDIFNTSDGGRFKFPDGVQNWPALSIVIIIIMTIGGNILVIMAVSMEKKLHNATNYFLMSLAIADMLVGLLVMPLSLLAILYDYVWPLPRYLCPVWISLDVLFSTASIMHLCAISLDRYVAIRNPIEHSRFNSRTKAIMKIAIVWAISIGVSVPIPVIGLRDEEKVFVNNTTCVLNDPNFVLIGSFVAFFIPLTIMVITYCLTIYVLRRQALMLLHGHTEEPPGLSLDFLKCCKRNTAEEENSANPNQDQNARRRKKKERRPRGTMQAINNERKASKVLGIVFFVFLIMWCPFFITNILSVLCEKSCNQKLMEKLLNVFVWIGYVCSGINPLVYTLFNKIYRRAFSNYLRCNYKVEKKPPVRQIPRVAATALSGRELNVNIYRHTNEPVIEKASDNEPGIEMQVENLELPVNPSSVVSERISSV
Can you tell me Emax for the items I'm about to list?
Give bare numbers, in %.

These solved cases illustrate the format of a correct answer.
Molecule: CCN(C)CCc1c[nH]c2ncc(C#N)cc12
Units text: %
Emax: 1
//
Molecule: C[C@@H]1CCN1CCc1c[nH]c2ncc(F)cc12
Units text: %
Emax: 28
//
Molecule: CCN(C)CCc1c[nH]c2ncc(Br)cc12
Units text: %
Emax: 19
//
Molecule: CC1CCN1CCc1c[nH]c2ncc(C#N)cc12 (stereo not shown)
Units text: %
Emax: 9
//
Molecule: N#Cc1cnc2[nH]cc(CCN3CCC3)c2c1
Units text: %
Emax: 16

Would you be so kind as to report Emax for each listed record?
1. Fc1cccc(CNCCc2c[nH]c3ncc(F)cc23)c1
2. N#Cc1cnc2[nH]cc(CCNCc3ccccc3F)c2c1
3. Fc1cnc2[nH]cc(CCNCc3ccccc3F)c2c1
4. CN(CCc1c[nH]c2ncc(F)cc12)C1CCC1

Resp:
1: 76; 2: 47; 3: 83; 4: 50

Would you be so kind as to report Emax for each listed record?
1. C[C@H]1CCN1CCc1c[nH]c2ncc(F)cc12
2. CN(CCc1c[nH]c2ncc(C#N)cc12)C1CC1
3. COc1cnc2[nH]cc(CCN3CCCC3)c2c1
4. Fc1cnc2[nH]cc(CCNC3CCC3)c2c1
5. Fc1cnc2[nH]cc(CCNCC3CC3)c2c1

Resp:
[44, 44, 43, 25, 35]

Would you be so kind as to report Emax for each listed record?
1. COc1cccc(CNCCc2c[nH]c3ncc(F)cc23)c1
2. CC(C)N(C)CCc1c[nH]c2ncc(Br)cc12
3. COc1cnc2[nH]cc(CCN3CCCCC3)c2c1
4. CN(CCc1c[nH]c2ncc(OC(F)(F)F)cc12)C1CC1

Resp:
1: 87; 2: 34; 3: 8; 4: 0

Would you be so kind as to report Emax for each listed record?
1. CC1CCN1CCc1c[nH]c2ncc(Br)cc12 (stereo not shown)
2. CN(CCc1c[nH]c2ncc(F)cc12)CC1CC1
3. Fc1cccc(CNCCc2c[nH]c3ncc(Br)cc23)c1
4. N#Cc1cnc2[nH]cc(CCNCc3cccc(F)c3)c2c1
5. Fc1ccccc1CNCCc1c[nH]c2ncc(Br)cc12
6. COc1cccc(CNCCc2c[nH]c3ncc(C#N)cc23)c1
7. Fc1cnc2[nH]cc(CCN3CCC4CC43)c2c1 (stereo not shown)

Resp:
[19, 55, 73, 43, 63, 46, 84]

Would you be so kind as to report Emax for each listed record?
1. CCN(C)CCc1c[nH]c2ncc(Cl)cc12
2. C[C@H]1CCCN1CCc1c[nH]c2ncc(F)cc12

Resp:
1: 49; 2: 2

Would you be so kind as to report Emax for each listed record?
1. C[C@@H]1CCCN1CCc1c[nH]c2ncc(F)cc12
2. Fc1cnc2[nH]cc(CCN3CCC34CCC4)c2c1
3. Fc1cnc2[nH]cc(CCN3CCC3)c2c1
4. CCN(C)CCc1c[nH]c2ncc(OC(F)(F)F)cc12

Resp:
1. 44
2. 0
3. 72
4. 0
